Experiment: Toxicity in brine shrimp
Format: organism-based
Details: artemia, in vivo
readout.type: LC50 (µg/mL)
Form entry: value (µg/mL) — number only.

>  <structure.as.smiles>
COc1c(OC)c2c(C)cc3c(O)cccc3c2[nH]c1=O

>  <LC50 / µg/mL>
2.15

$$$$
>  <structure.as.smiles>
CCCCCCCCCCCCCCC/C=C\CCCCC(N)=O

>  <LC50 / µg/mL>
2.45

$$$$
>  <structure.as.smiles>
COc1cc([C@H]2OC[C@H]3[C@@H]2CO[C@@H]3c2cc(OC)c(O)c(OC)c2)cc(OC)c1O

>  <LC50 / µg/mL>
0.65

$$$$

Please look at the following molecule next.
Incoming: Can you look up the measured LC50 of "COc1cccc2c1C(=O)c1c(O)c3c(c(O)c1C2=O)C[C@@](O)(C(=O)CO)C[C@@H]3O[C@H]1C[C@H](N)[C@H](O)[C@H](C)O1" for me?
Outgoing: 0.088

Taken from ChEMBL document CHEMBL1149751.
